Every entry's value here was drawn from the supplement of paper PMC10567573.

B1: LCOR (parent)
chain: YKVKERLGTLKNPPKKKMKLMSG

variants of: B1; experiment: protein stability index of a GFP-peptide fusion (GPS, HEK-293T) (PSI 1-6); higher = more stable; conditions: c terminus: native;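 further: lentivirally expressed fusions sorted by FACS into six bins by GFP to DsRed ratio, PSI derived from sequencing read proportions per bin multiplied by bin number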
// FALSE strictly below 2 in protein stability index; TRUE otherwise

Here's what some known entries look like.
INSERT INTO results (variant_descriptor, qualitative_label) VALUES
  ('P13R', 'TRUE'),
  ('K17E', 'TRUE'),
  ('K15I', 'TRUE'),
  ('K16P', 'FALSE'),
  ('M18C', 'FALSE'),
  ('E5Q', 'FALSE'),
  ('E5G', 'TRUE'),
  ('K4G', 'TRUE'),
  ('K11S', 'FALSE'),
  ('S22F', 'TRUE');

Hi team, for "P14C" , is the recorded protein stability index at or above 2?
TRUE

Hi team, for "P13I" , is the recorded protein stability index at or above 2?
TRUE

Textbook exercise: given the entry "P14E" , state whether its protein stability index is greater than or equal to 2.
FALSE

Test whether the variant "L20I" records protein stability index of 2 or higher.
TRUE

Is it the case that "L20G" has protein stability index reaching or exceeding 2?
TRUE

Record "K16V" ; criterion: protein stability index no lower than 2. Met?
FALSE

Could you please find out whether "V3T" has protein stability index that meets 2 or exceeds it?
FALSE

Reported protein stability index at or above 2? "P13T"
TRUE

Hi team, for "E5I" , is the recorded protein stability index at or above 2?
FALSE

Does the reported protein stability index for "K17S" fall at or above the 2 mark?
FALSE

Given the entry "K16W" , answer whether its protein stability index meets or surpasses 2.
TRUE
